tested on: human hepatoma HepG2 tumor cell lines; assay: MTT antiproliferation assay, HepG2; assay type: cell-based; details: Homo sapiens, HepG2; Table 2; MTT, 48 h; read-out: Anti-proliferative effect on HepG2 tumor cells IC50
OBSERVED PROPERTY: IC50 (µM)
Just the number in µM, nothing appended.

Lookup: Any idea what its IC50 is? The compound is COc1cc(/C=C2\CC/C(=C\c3ccc(F)cc3)C2=O)cc(OC)c1
Found: 79.9

Lookup: Any idea what its IC50 is? The compound is COc1cc(/C=C2\CC/C(=C\c3ccccc3)C2=O)cc(OC)c1
Found: 11.3

###

I'd appreciate it if you could supply IC50 values for the items below.

Lookup: Enter reported IC50 observed with EGFR (Homo sapiens (Human)) for COc1cc(/C=C2\CCC/C(=C\c3cc(C(C)(C)C)c(O)c(C(C)(C)C)c3)C2=O)cc(OC)c1
Sequence (P00533 25-1210, species assumed): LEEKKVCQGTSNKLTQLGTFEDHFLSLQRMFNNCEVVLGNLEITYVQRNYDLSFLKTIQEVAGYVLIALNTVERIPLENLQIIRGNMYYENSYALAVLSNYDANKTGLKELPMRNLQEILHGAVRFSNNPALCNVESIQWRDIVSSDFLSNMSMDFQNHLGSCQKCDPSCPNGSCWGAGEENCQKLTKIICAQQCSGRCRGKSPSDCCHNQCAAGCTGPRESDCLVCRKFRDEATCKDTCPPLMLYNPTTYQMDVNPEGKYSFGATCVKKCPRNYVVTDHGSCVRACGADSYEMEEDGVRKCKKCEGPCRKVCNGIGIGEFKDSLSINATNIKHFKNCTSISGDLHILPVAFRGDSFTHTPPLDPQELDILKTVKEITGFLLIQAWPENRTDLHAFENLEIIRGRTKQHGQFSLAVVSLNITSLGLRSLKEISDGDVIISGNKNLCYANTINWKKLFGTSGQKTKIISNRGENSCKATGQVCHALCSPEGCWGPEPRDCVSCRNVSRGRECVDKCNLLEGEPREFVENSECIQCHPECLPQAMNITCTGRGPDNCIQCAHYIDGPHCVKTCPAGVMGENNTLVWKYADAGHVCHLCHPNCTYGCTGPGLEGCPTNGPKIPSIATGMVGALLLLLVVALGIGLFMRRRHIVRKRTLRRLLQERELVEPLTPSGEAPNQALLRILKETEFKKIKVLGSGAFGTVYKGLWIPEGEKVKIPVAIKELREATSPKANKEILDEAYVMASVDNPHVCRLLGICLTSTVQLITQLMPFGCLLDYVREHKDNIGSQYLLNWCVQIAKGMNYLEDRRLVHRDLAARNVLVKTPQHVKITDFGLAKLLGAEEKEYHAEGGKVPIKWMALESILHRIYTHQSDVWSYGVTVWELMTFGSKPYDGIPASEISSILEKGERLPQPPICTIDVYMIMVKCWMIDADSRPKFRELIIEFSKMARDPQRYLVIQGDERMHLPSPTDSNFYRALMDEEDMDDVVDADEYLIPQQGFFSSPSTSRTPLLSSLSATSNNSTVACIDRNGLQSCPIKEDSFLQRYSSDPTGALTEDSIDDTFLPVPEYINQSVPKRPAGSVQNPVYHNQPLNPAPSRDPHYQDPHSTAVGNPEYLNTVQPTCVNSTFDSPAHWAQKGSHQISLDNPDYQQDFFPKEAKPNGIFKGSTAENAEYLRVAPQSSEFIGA
Found: 4.81 µM

Lookup: Enter reported IC50 observed with EGFR (Homo sapiens (Human)) for COc1cc(/C=C2\CCC/C(=C\c3ccc(O)c(O)c3)C2=O)cc(OC)c1
Found: 0.43 µM

Lookup: Enter reported IC50 observed with EGFR (Homo sapiens (Human)) for COc1cc(/C=C2\CCC/C(=C\c3ccccc3Br)C2=O)cc(OC)c1
Found: 8.08 µM

Lookup: Enter reported IC50 observed with EGFR (Homo sapiens (Human)) for COc1cc(/C=C2\CCC/C(=C\c3ccc(N(C)C)cc3)C2=O)cc(OC)c1
Found: 3.98 µM

Lookup: Enter reported IC50 observed with EGFR (Homo sapiens (Human)) for COc1cc(/C=C2\CCC/C(=C\c3ccc(F)cc3)C2=O)cc(OC)c1
Found: 5.69 µM

Lookup: Enter reported IC50 observed with EGFR (Homo sapiens (Human)) for COc1cc(/C=C2\CCC/C(=C\C3CCCCC3)C2=O)cc(OC)c1
Found: 7.52 µM

Lookup: Enter reported IC50 observed with EGFR (Homo sapiens (Human)) for COc1cc(/C=C2\CCC/C(=C\c3cccc(Cl)c3)C2=O)cc(OC)c1
Found: 2.27 µM

Lookup: Enter reported IC50 observed with EGFR (Homo sapiens (Human)) for COc1cc(/C=C2\CCC/C(=C\c3ccc(Br)cc3)C2=O)cc(OC)c1
Found: 7.12 µM

Lookup: Enter reported IC50 observed with EGFR (Homo sapiens (Human)) for COc1cc(/C=C2\CCC/C(=C\c3ccccc3Cl)C2=O)cc(OC)c1
Found: 1.54 µM

Lookup: Enter reported IC50 observed with EGFR (Homo sapiens (Human)) for COc1cc(/C=C2\CCC/C(=C\c3ccc(Cl)cc3)C2=O)cc(OC)c1
Found: 15.3 µM

Lookup: Enter reported IC50 observed with EGFR (Homo sapiens (Human)) for COc1cccc(/C=C2\CCC/C(=C\c3cc(OC)cc(OC)c3)C2=O)c1
Found: 6.13 µM

Lookup: Enter reported IC50 observed with EGFR (Homo sapiens (Human)) for COc1cc(/C=C2\CCC/C(=C\c3ccc(S(C)(=O)=O)cc3)C2=O)cc(OC)c1
Found: 1.96 µM
